Would you kindly list pIC50 for each of these molecules?
# Target Entity: UniProtKB P27487
# Sequence (P27487 whole entry): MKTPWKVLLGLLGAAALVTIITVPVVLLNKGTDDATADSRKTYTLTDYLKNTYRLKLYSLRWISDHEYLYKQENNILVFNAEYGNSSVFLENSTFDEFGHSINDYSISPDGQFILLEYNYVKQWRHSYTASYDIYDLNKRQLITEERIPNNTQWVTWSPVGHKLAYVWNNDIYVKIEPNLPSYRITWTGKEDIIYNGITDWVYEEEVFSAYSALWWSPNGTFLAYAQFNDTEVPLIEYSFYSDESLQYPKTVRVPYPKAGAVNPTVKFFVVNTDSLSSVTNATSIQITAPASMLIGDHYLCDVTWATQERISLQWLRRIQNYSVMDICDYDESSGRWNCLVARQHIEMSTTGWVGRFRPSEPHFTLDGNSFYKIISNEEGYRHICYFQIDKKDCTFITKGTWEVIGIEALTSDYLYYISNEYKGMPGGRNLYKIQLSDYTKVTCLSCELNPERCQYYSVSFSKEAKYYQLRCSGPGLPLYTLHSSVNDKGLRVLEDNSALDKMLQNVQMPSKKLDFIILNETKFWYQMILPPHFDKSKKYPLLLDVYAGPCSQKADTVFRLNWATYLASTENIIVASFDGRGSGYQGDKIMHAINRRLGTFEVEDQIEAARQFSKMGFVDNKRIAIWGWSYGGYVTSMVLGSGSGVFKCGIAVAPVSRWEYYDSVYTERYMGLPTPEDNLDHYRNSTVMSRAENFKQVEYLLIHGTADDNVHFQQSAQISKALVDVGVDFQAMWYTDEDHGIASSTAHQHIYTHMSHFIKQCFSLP
# Protocol: DPP4 inhibition, fluorogenic substrate H-Gly-Pro-AMC
# Format: biochemical
# Parameters: purchased R&D Systems
# Measurement Parameters: recombinant human DPP4
pIC50: −log10 of the molar value.

Input: Please report the recorded pIC50 for CN(c1cncc2ccoc12)C1CCN(CC(=O)N2CCC[C@H]2C#N)CC1 [Example 312] .
Output: < 5.00

Input: For CCN(c1cnc2ccccc2c1)C1CCN(CC(=O)N2CCC[C@H]2C#N)CC1 [Example 302] then?
Output: ≤ 4.00

Input: Also, COc1ccc2ncccc2c1N[C@H]1CCN(CC(=O)N2CCC[C@H]2C#N)C1 [Example 240] please.
Output: < 5.00

Input: What do you have for CN(c1cccc2cnccc12)C1CCN(CC(=O)N2CCC[C@H]2C#N)CC1 [Example 313] ?
Output: < 5.00

Input: Also N#C[C@@H]1C[C@H](F)CN1C(=O)CN1CCC(Nc2ccnc3c(Cl)cccc23)CC1 [Example 344] ?
Output: ≤ 4.00

====

Field: IC50. Provide a value for each of the compounds that follow.
# Target Entity: recombinant human DPP7 (Homo sapiens, UniProt Q9UHL4)
# Construct: purchased R&D Systems
# Protocol: DPP7 inhibition, fluorogenic substrate Lys-Pro-AMC
# Format: biochemical
# Measurement Parameters: recombinant human DPP7
Kindly answer with a numeric value in nM, unit omitted.

Input: What IC50 value was documented for this compound, COc1cnc2cccc(N[C@H]3CCN(CC(=O)N4CCC[C@H]4C#N)C3)c2c1 [Example 233] ?
Output: 1070

Input: Same question for N#C[C@@H]1CCCN1C(=O)CN1CCC(Oc2ccnc3ccc(F)cc23)CC1 [Example 427] please.
Output: 15800

Input: Queued: N#C[C@@H]1C[C@H](F)CN1C(=O)CN1CC[C@H](Nc2ccc(C(=O)Nc3cccnc3)c3ncccc23)C1 [Example 295]
Output: 64.1

Input: Repeat for the following compound: N#C[C@@H]1C[C@H](F)CN1C(=O)CN1CCC(Nc2cncc3c(Cl)cccc23)CC1 [Example 361]
Output: 314

Input: Entry N#C[C@@H]1C[C@H](F)CN1C(=O)CN1CC[C@H](Nc2ccnc3c(C(F)(F)F)cccc23)C1 [Example 271] please
Output: 213

Input: What about this compound? N#C[C@@H]1C[C@H](F)CN1C(=O)CN1CC[C@H](Nc2cc(Cl)c3ncccc3c2)C1 [Example 279]
Output: 398

Input: And the next one, N#C[C@@H]1C[C@H](F)CN1C(=O)CN1CC[C@H](Nc2ccc3cccnc3c2)C1 [Example 251] ?
Output: 199

Input: Further, for N#C[C@@H]1C[C@H](F)CN1C(=O)CN1CCC(Nc2cc(Cl)c3ncccc3c2)CC1 [Example 376] ?
Output: 226

Input: Param item: N#C[C@@H]1C[C@H](F)CN1C(=O)CN1CCC(Nc2ccnc3ccc(Cl)cc23)CC1 [Example 338]
Output: 809

Input: Thanks! And N#C[C@@H]1CCCN1C(=O)CN1CC[C@@H](Nc2ccc(OC(F)(F)F)c3ncccc23)C1 [Example 202] ?
Output: 6810

Input: Also, N#C[C@@H]1C[C@H](F)CN1C(=O)CN1CCC(Oc2cc(C(F)(F)F)nc3ccccc23)CC1 [Example 412] please.
Output: 10700

Input: Another compound to look at: CCN(c1ccc2ncccc2c1)C1CCN(CC(=O)N2CCC[C@H]2C#N)CC1 [Example 303]
Output: 1940

Input: Queued: CN(c1ccc(C(F)(F)F)c2ncccc12)[C@H]1CCN(CC(=O)N2C[C@@H](F)C[C@H]2C#N)C1 [Example 159]
Output: 61

Input: And then N#C[C@@H]1CCCN1C(=O)CN1CCC(Oc2cccc3ncc(F)cc23)CC1 [Example 429] , what is it?
Output: 3970

Input: Now this one: COc1ccc(N[C@H]2CCN(CC(=O)N3CCC[C@H]3C#N)C2)c2cccnc12 [Example 243]
Output: 3240

Input: Item: N#C[C@@H]1CCCN1C(=O)CN1CC[C@H](Nc2cccc3ncc(Cl)cc23)C1 [Example 235]
Output: 2790

Input: Next compound: N#C[C@@H]1C[C@H](F)CN1C(=O)CN1CCC(Nc2ccc(C(F)(F)F)c3ncccc23)CC1 [Example 334]
Output: 404
